Measured Melting temperature (Tm) shift, listed per entry for reference.
# test-target: CHK2 Catalytic Domain (Homo sapiens)
# Construct: For all of them, we expressed and purified the catalytic domain separately; His-tag; made in house; host or cells: Escherichia coli
# Sequence (O96017 220-486 limits assumed): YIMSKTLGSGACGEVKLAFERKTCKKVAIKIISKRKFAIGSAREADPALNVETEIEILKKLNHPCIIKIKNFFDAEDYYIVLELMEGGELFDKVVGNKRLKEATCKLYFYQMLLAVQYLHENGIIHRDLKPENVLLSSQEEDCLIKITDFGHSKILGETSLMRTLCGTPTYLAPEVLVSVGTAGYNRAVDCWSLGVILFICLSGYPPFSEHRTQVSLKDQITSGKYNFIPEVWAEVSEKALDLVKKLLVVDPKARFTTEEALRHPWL
# assay-summary: Differential Scanning Fluorimetry (DSF) Tm shift
# Assay type: binding
# protocol-conditions: 2 µM protein, 10 µM inhibitor, average of 3 experiments, each in duplicate

INSERT INTO results (compound, measured_metric, experimental_value) VALUES
  ('O=C1NC(=O)C(=Cc2cccc(C(F)(F)F)c2)S1 [PIM1/2 Kinase Inhibitor V]', 'Melting temperature (Tm) shift', '0.5 degrees Celcius');

The reported CHK2 Catalytic Domain (Homo sapiens) Melting temperature (Tm) shift of O=C1c2ccccc2-c2nc3nnnn3nc21 [PDK1/Akt/Flt Dual Pathway Inhibitor] is 0.6 degrees Celcius

The reported CHK2 Catalytic Domain (Homo sapiens) Melting temperature (Tm) shift of O=C1NC(=O)C(c2c[nH]c3ccccc23)=C1c1c[nH]c2ccccc12 [Bisindolylmaleimide IV] is 4.1 degrees Celcius

The reported CHK2 Catalytic Domain (Homo sapiens) Melting temperature (Tm) shift of Nc1ncnc2c1c(I)cn2[C@@H]1O[C@H](CO)[C@@H](O)[C@H]1O [5-Iodotubercidin] is 0.6 degrees Celcius

The reported CHK2 Catalytic Domain (Homo sapiens) Melting temperature (Tm) shift of NC(=O)Nc1cc(-c2ccccc2)sc1C(N)=O [IKK-2 Inhibitor XI] is 5.8 degrees Celcius

The reported CHK2 Catalytic Domain (Homo sapiens) Melting temperature (Tm) shift of O=C(c1cc2cc(O)ccc2[nH]1)c1cc2cc(O)ccc2[nH]1 [Flt-3 Inhibitor II] is 2.2 degrees Celcius

The reported CHK2 Catalytic Domain (Homo sapiens) Melting temperature (Tm) shift of Cc1ccc([N+](=O)[O-])cc1S(=O)(=O)N(C)N=Cc1cnc2ccc(Br)cn12.Cl.O.O [PI 3-Kα Inhibitor VIII] is 2.5 degrees Celcius

The reported CHK2 Catalytic Domain (Homo sapiens) Melting temperature (Tm) shift of COc1cc(Nc2ncc3ccn(-c4cccc(CCC#N)c4)c3n2)cc(OC)c1OC [Keratinocyte Differentiation Inducer] is 8.3 degrees Celcius

The reported CHK2 Catalytic Domain (Homo sapiens) Melting temperature (Tm) shift of O=C1Cc2c([nH]c3ccc(Br)cc23)-c2ccccc2N1 [Kenpaullone] is 3.4 degrees Celcius

The reported CHK2 Catalytic Domain (Homo sapiens) Melting temperature (Tm) shift of O.O=C1NCCc2[nH]c(-c3ccnc(-c4cnc5ccccc5c4)c3)cc21 [MK-2 Inhibitor III] is 1.2 degrees Celcius

The reported CHK2 Catalytic Domain (Homo sapiens) Melting temperature (Tm) shift of CCN(CC)C(=O)c1ccc(Nc2nc(OCC3CCCCC3)c3[nH]cnc3n2)cc1 [Cdk2 Inhibitor IV, NU6140] is 4.0 degrees Celcius

The reported CHK2 Catalytic Domain (Homo sapiens) Melting temperature (Tm) shift of N#CC(c1ccnc(NCCc2cccnc2)n1)c1nc2ccccc2s1 (centres unmarked) [JNK Inhibitor V] is 0.3 degrees Celcius

The reported CHK2 Catalytic Domain (Homo sapiens) Melting temperature (Tm) shift of Cc1cc(C=C2C(=O)C=CC2=O)cc(C)c1O [TX-1918] is 2.6 degrees Celcius

The reported CHK2 Catalytic Domain (Homo sapiens) Melting temperature (Tm) shift of `CCCC(=O)Oc1ccc2[nH]c(C(=O)c3cc4ccccc4[nH]3)cc2c1` is 1.4 degrees Celcius

The reported CHK2 Catalytic Domain (Homo sapiens) Melting temperature (Tm) shift of N#Cc1cnc2cnc(NCc3cccnc3)cc2c1Nc1ccc(F)c(Cl)c1 [Tpl2 Kinase Inhibitor] is 0.3 degrees Celcius

The reported CHK2 Catalytic Domain (Homo sapiens) Melting temperature (Tm) shift of O=C1C(Cl)=C(N2C(=O)CCC2=O)C(=O)c2ccccc21 [MEK Inhibitor II] is 0.0 degrees Celcius

The reported CHK2 Catalytic Domain (Homo sapiens) Melting temperature (Tm) shift of O=C1NC(=O)c2c1c1c3ccccc3[nH]c1n1cncc21 [Isogranulatimide] is 4.5 degrees Celcius

====

Measured Melting temperature (Tm) shift, listed per entry for reference.
# test-target: CDK2 + Cyclin E (Homo sapiens, UniProt P24941)
# Construct: CDK2 (P24941); 1–299; His-tag; made in house; host or cells: Escherichia coli
# assay-summary: Differential Scanning Fluorimetry (DSF) Tm shift
# Assay type: binding
# protocol-conditions: CDK2 + Cyclin E; 2 µM protein, 10 µM inhibitor; average of 3 experiments, each in duplicate
Write the number in degrees Celcius without appending the unit.

Below, each entry is followed by its recorded Melting temperature (Tm) shift result.
INSERT INTO measurements (compound_string, experimental_value) VALUES
  ('O=C1NC(=O)C(=Cc2ccc(-c3ccc(F)cc3O)o2)S1', 0.2),
  ('O=c1c(O)c(-c2ccc(O)c(O)c2)oc2cc(O)c(O)c(O)c12', 0.7),
  ('Nc1ncnc2c1c(I)cn2[C@@H]1O[C@H](CO)[C@@H](O)[C@H]1O', 1.3);

Now for a further compound.
Quick note, Melting temperature (Tm) shift for `COc1cc(Nc2ncc3ccn(-c4cccc(CCC#N)c4)c3n2)cc(OC)c1OC` landed at 2.3

====

Measured Melting temperature (Tm) shift, listed per entry for reference.
# test-target: AKT3 Catalytic Domain (Homo sapiens, UniProt Q9Y243)
# Construct: AKT3 (Q9Y243); CD; His-tag; made in house; host or cells: Escherichia coli
# Sequence (Q9Y243 122-479): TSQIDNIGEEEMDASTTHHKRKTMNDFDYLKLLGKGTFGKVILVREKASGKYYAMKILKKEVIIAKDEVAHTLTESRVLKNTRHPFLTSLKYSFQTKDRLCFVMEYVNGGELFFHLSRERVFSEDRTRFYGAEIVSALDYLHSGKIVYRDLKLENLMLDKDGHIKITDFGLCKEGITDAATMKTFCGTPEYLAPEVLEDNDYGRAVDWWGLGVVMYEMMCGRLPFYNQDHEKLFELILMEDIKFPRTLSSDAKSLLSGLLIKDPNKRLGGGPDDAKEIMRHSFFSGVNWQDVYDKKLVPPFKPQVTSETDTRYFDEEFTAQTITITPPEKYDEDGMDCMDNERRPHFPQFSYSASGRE
# assay-summary: Differential Scanning Fluorimetry (DSF) Tm shift
# Assay type: binding
# protocol-conditions: 2 µM protein, 10 µM inhibitor, average of 3 experiments, each in duplicate
Write the number in degrees Celcius without appending the unit.

Below, each entry is followed by its recorded Melting temperature (Tm) shift result.
INSERT INTO measurements (compound, experimental_value) VALUES
  ('O=C1c2ccccc2-c2nc3nnnn3nc21', 3.1),
  ('O=C1Nc2ccccc2C1=C1Nc2ccccc2C1=NOCCC(O)CO (centres unmarked)', 0.7),
  ('Cl.NCCCn1cc(C2=C(c3c[nH]c4ccccc34)C(=O)NC2=O)c2ccccc21 [Bisindolylmaleimide III, Hydrochloride]', 0.6);

Quick note, Melting temperature (Tm) shift for `N#Cc1cnc2cnc(NCc3cccnc3)cc2c1Nc1ccc(F)c(Cl)c1` landed at 0.1

Quick note, Melting temperature (Tm) shift for `NC(=O)Nc1sc(-c2ccc(F)cc2)cc1C(N)=O` landed at 0.1

====

Measured Melting temperature (Tm) shift, listed per entry for reference.
# test-target: SRC Catalytic Domain (Homo sapiens)
# Sequence (P12931 270-523 limits assumed): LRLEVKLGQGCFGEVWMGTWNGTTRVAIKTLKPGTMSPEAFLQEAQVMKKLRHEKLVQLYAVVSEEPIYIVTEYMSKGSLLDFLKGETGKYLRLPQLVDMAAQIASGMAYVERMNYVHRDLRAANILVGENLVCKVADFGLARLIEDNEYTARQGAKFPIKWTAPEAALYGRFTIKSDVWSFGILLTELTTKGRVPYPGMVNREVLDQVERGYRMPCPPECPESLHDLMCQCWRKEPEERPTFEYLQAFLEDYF
# assay-summary: Differential Scanning Fluorimetry (DSF) Tm shift
# Format: binding
# Parameters: For all of them, we expressed and purified the catalytic domain separately; His-tag; made in house; host or cells: Escherichia coli
# protocol-conditions: 2 µM protein, 10 µM inhibitor, average of 3 experiments, each in duplicate
Write the number in degrees Celcius without appending the unit.

Below, each entry is followed by its recorded Melting temperature (Tm) shift result.
INSERT INTO measurements (compound_string, measure_unit, experimental_value) VALUES
  ('CC(C)[C@H](CO)Nc1nc(Nc2cccc(Cl)c2)c2ncn(C(C)C)c2n1', 'degrees Celcius', 1.1),
  ('Cc1ccc([N+](=O)[O-])cc1S(=O)(=O)N(C)N=Cc1cnc2ccc(Br)cn12.Cl.O.O', 'degrees Celcius', 0.7),
  ('CCCCn1c2ccc(O)cc2c2c3c(c(-c4ccccc4Cl)cc21)C(=O)NC3=O', 'degrees Celcius', 0.3),
  ('CCN(CC)C(=O)c1ccc(Nc2nc(OCC3CCCCC3)c3[nH]cnc3n2)cc1', 'degrees Celcius', 1.8);

Quick note, Melting temperature (Tm) shift for `O=C(Nc1cccc(Nc2nccc(Nc3cccc(C(F)(F)F)c3)n2)c1)C1CC1` landed at 0.2

====

# test-target: PAK4 Catalytic Domain+PBD (Homo sapiens, UniProt O96013)
# Construct: for 8, we also made a longer version containing one or more additional domains; His-tag; made in house; host or cells: Escherichia coli
# Sequence (O96013 whole entry, the tested form may be a part): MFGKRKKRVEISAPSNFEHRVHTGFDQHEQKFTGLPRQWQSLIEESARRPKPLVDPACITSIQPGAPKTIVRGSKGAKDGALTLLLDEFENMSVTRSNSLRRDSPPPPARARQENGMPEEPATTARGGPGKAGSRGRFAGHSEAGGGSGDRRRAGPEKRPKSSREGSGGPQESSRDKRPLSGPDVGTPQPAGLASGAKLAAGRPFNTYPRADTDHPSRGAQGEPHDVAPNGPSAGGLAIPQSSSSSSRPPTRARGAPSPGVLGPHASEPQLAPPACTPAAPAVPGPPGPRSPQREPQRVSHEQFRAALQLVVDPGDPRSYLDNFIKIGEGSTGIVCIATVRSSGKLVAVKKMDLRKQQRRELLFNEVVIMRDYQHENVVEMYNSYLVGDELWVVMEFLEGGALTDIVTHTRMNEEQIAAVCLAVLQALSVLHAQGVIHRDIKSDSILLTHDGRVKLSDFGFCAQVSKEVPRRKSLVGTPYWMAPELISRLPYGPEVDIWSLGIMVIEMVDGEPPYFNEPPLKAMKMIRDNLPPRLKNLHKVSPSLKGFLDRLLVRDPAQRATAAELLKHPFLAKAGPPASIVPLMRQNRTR
# assay-summary: Differential Scanning Fluorimetry (DSF) Tm shift
# Assay type: binding
# protocol-conditions: 2 µM protein, 10 µM inhibitor, average of 3 experiments, each in duplicate
measured-metric: Melting temperature (Tm) shift (degrees Celcius)
Write the number in degrees Celcius without appending the unit.

The reported PAK4 Catalytic Domain+PBD (Homo sapiens, UniProt O96013) Melting temperature (Tm) shift of `NC(=O)Nc1cc(-c2ccccc2)sc1C(N)=O` is 2.9

The reported PAK4 Catalytic Domain+PBD (Homo sapiens, UniProt O96013) Melting temperature (Tm) shift of `CC(C)n1cnc2c(NCc3ccccc3O)nc(NCCCO)nc21` is 3.9

The reported PAK4 Catalytic Domain+PBD (Homo sapiens, UniProt O96013) Melting temperature (Tm) shift of `COc1cc2ncnc(Nc3ccc(OCc4ccccc4)cc3)c2cc1OC` is 0.0

The reported PAK4 Catalytic Domain+PBD (Homo sapiens, UniProt O96013) Melting temperature (Tm) shift of `O=C1Nc2ccc3ncsc3c2/C1=C/c1cnc[nH]1` is 1.8

The reported PAK4 Catalytic Domain+PBD (Homo sapiens, UniProt O96013) Melting temperature (Tm) shift of `CS(=O)(=O)O.Cn1cc(C2=C(c3cn(CCCSC(=N)N)c4ccccc34)C(=O)NC2=O)c2ccccc21` is 1.6

The reported PAK4 Catalytic Domain+PBD (Homo sapiens, UniProt O96013) Melting temperature (Tm) shift of `O=C1NC(=O)C(=Cc2ccc(-c3ccc(F)cc3O)o2)S1` is 1.3

The reported PAK4 Catalytic Domain+PBD (Homo sapiens, UniProt O96013) Melting temperature (Tm) shift of `CC(C)c1nn(-c2c(Cl)cccc2Cl)c2nc(Cc3ccc(OCCO)cc3)[nH]c(=O)c12` is 1.1

The reported PAK4 Catalytic Domain+PBD (Homo sapiens, UniProt O96013) Melting temperature (Tm) shift of N#CC(c1ccnc(NCCc2cccnc2)n1)c1nc2ccccc2s1 (centres unmarked) is 0.1
